tested on: NCI-H460; assay: NCI tumour cell line growth inhibition, 48 h
Active and inactive are the calls of the source. No stated cut-off is given here; in the data, active = GI50 up to about 1.1 µM and inactive = higher.
// values below are reported GI50

See these solved cases before continuing.
- Molecule: "CCCCCCCCCCCCCC(=O)OCC(CCS(=O)(=O)O[C@H]1CC[C@@]2(C)C(=CC[C@@H]3C2CC[C@]2(C)C(=O)CCC32)C1)OC(=O)CCCCCCCCCCCCC (some centres undefined)"
  GI50: "> 100 µM (inactive)"
- Molecule: "N=C(N)NC1C(O)C(O)C(O)C(NC(=N)N)C1O (centres undefined)"
  GI50: "> 100 µM (inactive)"
- Molecule: "CC[N+]1(C)CCC(O)(/C=C/c2ccc(Cl)c(Cl)c2)C(C(=O)/C=C/c2ccc(Cl)c(Cl)c2)C1 (centres undefined)"
  GI50: "2.99 µM (inactive)"

The record that follows has no GI50 shown yet.
For NCI-H460, give the measured GI50 of the entry `COc1cccc(/N=C/c2cc3cc(Br)ccc3nc2Cl)c1`
13.8 µM (inactive)

* * *

system: MDA-MB-231; experiment: NCI tumour cell line growth inhibition, 48 h
The source made the active and inactive calls. Rule as the data show it: active = GI50 up to about 1.1 µM and inactive = higher.
// values below are reported GI50

See these solved cases before continuing.
- Compound: "N=C(N)NC1C(O)C(O)C(O)C(NC(=N)N)C1O (stereo not given)"
  Assayed System: "MDA-MB-231"
  GI50: "> 100 µM (inactive)"
- Compound: "CCC(C)C(=O)OC1CC2(C)C(c3ccoc3)OC(=O)CC23OC2(C)OC34C(OC(=O)C(C)C)C3(O)C(OC(=O)C5(C)OC5C)C5(C)CC3(O)C(C)(C5CC(=O)OC)C14O2 (stereo not given)"
  Assayed System: "MDA-MB-231"
  GI50: "56.2 µM (inactive)"
- Compound: "CCOC(=O)C1=NN(c2ccc(Cl)cc2)C2=CC(C)=NN(C)C(=S)N21"
  Assayed System: "MDA-MB-231"
  GI50: "44.5 µM (inactive)"
- Compound: "O=C(O)C(O)Cc1ccccn1 (stereo not given)"
  Assayed System: "MDA-MB-231"
  GI50: "> 100 µM (inactive)"
- Compound: "COC(=O)NC(Nc1ccc(C)cc1)(C(F)(F)F)C(F)(F)F"
  Assayed System: "MDA-MB-231"
  GI50: "> 100 µM (inactive)"

The record that follows has no GI50 shown yet.
Determine its reported GI50: `CC(C)(C)OC(=O)[C@@H]1CCC(=S)N1Cc1ccccc1`
> 100 µM (inactive)

* * *

test system: PC-3; assay: NCI tumour cell line growth inhibition, 48 h
Active and inactive are the calls of the source. Rule as the data show it: active = GI50 up to about 1.1 µM and inactive = higher.
Answer with one of the outcomes given here: Y (active), N (inactive)

- Molecule: "c1cc2c3c(c1)[C@@H]1O[C@@H]1c1cccc(c1-3)[C@@H]1O[C@H]21"
  Class: "N"
- Molecule: "CC(=O)N1C(c2[nH]c3ccccc3c2Cc2ccccc2)CCN1c1ccccc1 (stereo not drawn)"
  Class: "N"
- Molecule: "COc1cc2c(cc1OC)-c1cc3cc(OC)c(OC)cc3c(=O)n1CC2"
  Class: "N"
- Molecule: "CCOC(=O)CCC1(CCC(=O)OCC)CCCCCCCCC(CCC(=O)OCC)(CCC(=O)OCC)C(=O)C1=O"
  Class: "N"
- Molecule: "O=c1c(-c2ccc3c(c2)OCO3)coc2c3c(ccc12)OCO3"
  Class: "N"

Any idea what this test logged for `CN(C)c1nc2n(CCO)c(-c3ccccc3)c(-c3ccccc3)nc-2c(=O)n1` ?
N

Any idea what this test logged for `O=C(/C=C/c1ccc(O)cc1)NCCc1ccc(O)cc1` ?
N

Any idea what this test logged for `O=C(NC(=O)c1ccccc1[N+](=O)[O-])Nc1ccc(Oc2ncc(Cl)cn2)c(C(F)(F)F)c1` ?
Y

Any idea what this test logged for CCOC1OC(CO)C(O)CC1n1ccc(=O)[nH]c1=O (stereo not drawn) ?
N

Any idea what this test logged for C=C(C)CC1=C(OCC)C(OC)(OCC)C1=O (stereo not drawn) ?
N

Any idea what this test logged for `CC1=NN(c2nc(N)nc(/C(C#N)=C/c3ccccc3O)n2)C(C)(C)C1` ?
N

Any idea what this test logged for `O=[N+]([O-])c1cc(-c2nnc(C34CC5CC(CC(C5)C3)C4)o2)cc([N+](=O)[O-])c1` ?
N

Any idea what this test logged for `CN1C(=O)C(=CNc2ccccc2[N+](=O)[O-])C(=O)N(C)C1=O` ?
N

Any idea what this test logged for O=C1CC2(c3ccccc3)ON=C(c3ccccc3)N2c2ccccc2N1 (stereo not drawn) ?
N

Any idea what this test logged for `COc1ccc(C(=O)Sc2c(-c3ccccc3)c(=O)n(-c3ccccc3)c(=S)n2-c2ccccc2)cc1` ?
N

Any idea what this test logged for Cc1c2c(n(CCc3ccc(Cl)cc3)c1C)NC(c1ccccc1)C(C#N)S2(=O)=O (stereo not drawn) ?
N

Any idea what this test logged for `O=C(O)C(F)(F)C(F)(F)C(F)(F)C(F)(F)C(F)(F)C(F)(F)C(F)(F)C(F)(F)F` ?
N
